Ref: patent US20230322724A1

Target: recombinant BRD4 FL bromodomain (Homo sapiens, UniProt O60885)
Construct: fused on or other part: 6xHis tag, inferred from detection with Mab ANTI 6HIS-XL665
Assay: BRD4 FL TR-FRET displacement assay
Type: binding
Conditions: BRD4 FL, compound at 10 μM; read-out: % Inhibition (10 μM)
testReadout: inhibition at 10 µM (%)

Worked cases, inhibition at 10 µM given:
# compound, inhibition at 10 µM [%]
data = [
    ("CNC(=O)C1CCN(c2cc3c(cc(C)c(=O)n3C)c(N3CCN(C)c4cc(-c5cnn(C)c5)ncc43)n2)C1 (stereo not shown)", 43),
    ("COc1cc(N2CCN(C)c3ccc(C(C)=O)cc32)c2cc(C)c(=O)n(C)c2c1", 56),
    ("CC(=O)N1CCC(c2cc(N3CCN(C)c4cc(-c5cnn(C)c5)ncc43)c3cc(C)c(=O)n(C)c3c2)CC1", 45),
]

[A] Cc1cc2c(N3CCN(C)c4cc(N5CCCCC5)ncc43)cc(N3CCOCC3)cc2n(C)c1=O
[B] Cc1cc2c(N3CCCc4cc(-c5cnn(C)c5)c(C(F)F)cc43)nc(C3=CCOCC3)cc2n(C)c1=O
-- ask Quick one: lower inhibition at 10 µM, A or B ? Return value: the label identifying the chosen record.
-- reply B
(B: 22%, A: 43%)

* * *

Biological target: recombinant CREBBP bromodomain (Homo sapiens, UniProt Q92793)
Construct: recombinant CREBBP bromodomain obtained from BPS Bioscience, USA
Sequence (Q92793 1085-1192 limits assumed): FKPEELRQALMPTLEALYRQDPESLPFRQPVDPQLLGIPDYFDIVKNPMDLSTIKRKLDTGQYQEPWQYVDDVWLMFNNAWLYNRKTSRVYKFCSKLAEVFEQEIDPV
Assay: CBP TR-FRET displacement assay
Conditions: dose-response, read-out: IC50 (group A, B, C)
testReadout: IC50

Some entries whose results are on file:
# compound, assayValue
records = [
    ("COc1cc(N2CCN(C)c3cc(-c4ccncc4)c(C#N)cc32)c2cc(C)c(=O)n(C)c2c1", "< 50 nM"),
    ("COc1cc(N2CCN(C)c3ccc(-c4nn[nH]n4)cc32)c2cc(C)c(=O)n(C)c2c1", "< 50 nM"),
    ("COc1cc(N2CCN(C)c3cc(N4CC(C)NC(C)C4)c(C#N)cc32)c2cc(C)c(=O)n(C)c2c1 (centres unmarked)", "> 10 nM"),
    ("Cc1cc2c(N3CCN(C)c4cc(-c5cnn(C)c5)ncc43)cc(C#CCO)cc2n(C)c1=O", "51 to 100 nM"),
]

-- ask // IC50 lookup, key: "COc1cc2c(cc(C)c(=O)n2C)c(N2CCCc3cc(-c4cnn(C)c4)c(C(F)F)cc32)n1"
-- reply 51 to 100 nM

-- ask Try "COc1cc(N2CCN(C)c3ccc(S(C)(=O)=O)cc32)c2cc(C)c(=O)n(C)c2c1" next.
-- reply 51 to 100 nM

-- ask Next entry: "Cc1cc2c(N3CCN(C)c4cc(-c5cnn(C)c5)ncc43)cc(O)cc2n(C)c1=O"
-- reply 51 to 100 nM

-- ask Again, but for "Cc1cc2c(N3CCN(C)c4cc(-c5cnn(C)c5)c(C#N)cc43)cc(N3CCOCC3)cc2n(C)c1=O"
-- reply < 50 nM

* * *

Target: recombinant CREBBP bromodomain (Homo sapiens, UniProt Q92793)
Construct: recombinant CREBBP bromodomain obtained from BPS Bioscience, USA
Assay: CBP TR-FRET displacement assay
Conditions: dose-response, read-out: IC50 (group A, B, C)
pIC50: −log10 of the molar value.
# pIC50 values compiled below

Record excerpt, results attached:
# molecule, testTarget, assayValue
records = [
    ("COc1ccc(CN2CCN(c3cc(OC)cc4c3cc(C)c(=O)n4C)c3cc(C#N)c(-c4cnn(C)c4)cc32)cc1", "recombinant CREBBP bromodomain (Homo sapiens, UniProt Q92793)", "< 8.00"),
    ("COc1ccc(CN2CCN(c3cc(N4CCOCC4)cc4c3cc(C)c(=O)n4C)c3cnc(-c4cnn(C)c4)cc32)cc1", "recombinant CREBBP bromodomain (Homo sapiens, UniProt Q92793)", "7.00 to 7.29"),
]

-- ask For "Cc1cc2c(N3CCCc4cc(-c5cnn(C)c5)c(O)cc43)nc(C3CCOCC3)cc2n(C)c1=O" , what is its reported pIC50?
-- reply > 7.30

-- ask Now the molecule COc1cc(N2CCN(C)c3cc(N4CCC(O)C4)c(C#N)cc32)c2cc(C)c(=O)n(C)c2c1 (stereo not shown)
-- reply > 7.30

-- ask # iterate: "CCS(=O)(=O)N1CCN(c2cccc3c2cc(C)c(=O)n3C)c2ccc(-c3cnn(C)c3)cc21"
-- reply < 8.00

-- ask Okay, and "COc1cc(N2CCN(C)c3cc(-c4cnn(C)c4)c(S(N)(=O)=O)cc32)c2cc(C)c(=O)n(C)c2c1" ?
-- reply > 7.30

-- ask Repeat for the following molecule: "Cc1cc2c(N3CCN(C)c4cc(-c5cnn(C)c5)ncc43)cc(N3C[C@@H](C)O[C@@H](C)C3)cc2n(C)c1=O"
-- reply 7.00 to 7.29

* * *

Target: recombinant CREBBP bromodomain (Homo sapiens)
Construct: recombinant CREBBP bromodomain obtained from BPS Bioscience, USA
Experiment: CBP TR-FRET displacement assay
Settings: dose-response, read-out: IC50 (group A, B, C)
pIC50: −log10 of the molar value.
testReadout: pIC50

-- ask # get_value(readout='pIC50', item= Cc1cc2c(N3CCCc4cc(-c5cnn(C)c5)c(C(F)F)cc43)cc(C3CCOCC3)cc2n(C)c1=O [Example 179] )
-- reply > 7.30

-- ask Now the same for COc1cc(N2CCN(C)c3ccc(S(=O)(=O)NC(=O)C(F)(F)F)cc32)c2cc(C)c(=O)n(C)c2c1 [Example 107]
-- reply 7.00 to 7.29

-- ask Next compound up: COc1cc(N2CCN(C)c3cc(-n4cc(C)cn4)c(C#N)cc32)c2cc(C)c(=O)n(C)c2c1 [Example 10]
-- reply > 7.30

-- ask Follow-up item: COc1cc(N2CCN(C)c3cc(-c4cnn(C)c4)c(C#N)cc32)c2cc(C)c(=O)n(C)c2c1 [Example 1]
-- reply > 7.30

-- ask Next record, please: COCCOc1cc(N2CCN(C)c3cc(-c4cnn(C)c4)c(C#N)cc32)c2cc(C)c(=O)n(C)c2c1 [Example 37]
-- reply > 7.30

* * *

Reported IC50 is given for each of the following compounds.
Target: recombinant CREBBP bromodomain (Homo sapiens)
Construct: recombinant CREBBP bromodomain obtained from BPS Bioscience, USA
Assay: CBP TR-FRET displacement assay
Conditions: dose-response, read-out: IC50 (group A, B, C)

# compound, testReadout, assayValue
rows = [
    ("Cc1cc2c(N3CCN(C)c4cc(-c5cnn(C)c5)ncc43)cc(N3CCC4(COC4)C3)cc2n(C)c1=O [Example 150]", "IC50", "< 50 nM"),
]

API: the following record is the query input.
-- ask // fetch recombinant CREBBP bromodomain (Homo sapiens) IC50 for COc1cc2c(cc1-c1cnn(C)c1)CCCN2c1nc(C2CCOCC2)cc2c1cc(C)c(=O)n2C [Example 238]
-- reply < 50 nM

* * *

# IC50 listing for each entry below
Biological target: recombinant CREBBP bromodomain (Homo sapiens, UniProt Q92793)
Construct: recombinant CREBBP bromodomain obtained from BPS Bioscience, USA
Assay: CBP TR-FRET displacement assay
Details: dose-response, read-out: IC50 (group A, B, C)

These solved cases illustrate the format of a correct answer.
# molecule, testTarget, IC50
measured = [
    ("Cc1cc2c(N3CCCc4cc(-c5cnn(C)c5)c(C(F)F)cc43)nc(C3CCOCC3)cc2n(C)c1=O", "recombinant CREBBP bromodomain (Homo sapiens, UniProt Q92793)", "< 50 nM"),
    ("Cc1cc2c(N3CCN(C)c4cc(-c5cnn(C)c5)ncc43)cc(N3CCOC(C)C3)cc2n(C)c1=O (stereo not shown)", "recombinant CREBBP bromodomain (Homo sapiens, UniProt Q92793)", "51 to 100 nM"),
]

-- ask Looking for the measured IC50 of "Cc1cc2c(N3CCN(C)c4cc(-c5cnn(C)c5)ncc43)cccc2n(C)c1=O" , can you help?
-- reply > 10 nM

-- ask Try the molecule "COc1cc(N2CCN(C)c3cc(N4CCC(N(C)C)CC4)c(C#N)cc32)c2cc(C)c(=O)n(C)c2c1"
-- reply < 50 nM

* * *

# IC50 values compiled below
Molecular target: recombinant P300 bromodomain (Homo sapiens, UniProt Q09472)
Construct: recombinant P300 bromodomain obtained from BPS Bioscience, USA
Sequence (Q09472 1049-1156 limits assumed): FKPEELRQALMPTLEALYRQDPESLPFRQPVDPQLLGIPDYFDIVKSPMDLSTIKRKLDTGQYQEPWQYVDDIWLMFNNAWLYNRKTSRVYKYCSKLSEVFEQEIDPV
Assay: P300 TR-FRET displacement assay
Conditions: dose-response, read-out: IC50 (group A, B, C)

-- ask Data request, read-out IC50, for CNC(=O)C1CCN(c2cc3c(cc(C)c(=O)n3C)c(N3CCCc4cc(-c5cnn(C)c5)c(C(F)F)cc43)n2)C1 (stereo not shown) [Example 201]
-- reply < 25 nM

-- ask Please give the result for COc1cc(N2CCN(C)c3cc(N4CCN(C)CC4)c(C#N)cc32)c2cc(C)c(=O)n(C)c2c1 [Example 19] too.
-- reply 25 to 50 nM

-- ask Continue with Cc1cc2c(N3CCCc4cc(-c5cnn(C)c5)c(C(F)F)cc43)nc(N3CCC4(COC4)C3)cc2n(C)c1=O [Example 225]
-- reply 25 to 50 nM

-- ask Please do the same for Cc1cc2c(N3CCCc4cc(-c5cnn(C)c5)c(C(F)F)cc43)cncc2n(C)c1=O [Example 180] as well.
-- reply < 25 nM

-- ask Can you handle CN1CCN(c2cccc3c2cc(N)c(=O)n3C)c2cc(C#N)c(-c3cnn(C)c3)cc21 [Example 77] next?
-- reply > 50000 nM

-- ask // repeat for Cc1cc2c(N3CCN(C)c4cc(-c5cnn(C)c5)c(C=O)cc43)cccc2[nH]c1=O [Example 57] and report
-- reply > 50000 nM

-- ask And what about the compound Cc1cc2c(N3CCCc4cc(-c5cnn(C)c5)c(C(F)F)cc43)nc(N3CCOCC3)cc2n(C)c1=O [Example 234] ?
-- reply < 25 nM
